- Test system: NIH3T3
- PROTOCOL_NOTES: GSK_TCAKS: pIC50 NIH 3T3 cell line viability assay using luminiscence. Tissue culture surface treated assay plates (1536-well) were used. […] The 100% cells survival control was determined exposing the host-cells to a 0.5% DMSO concentration, whereas the 100% toxicity control was achieved by seeding the cells in presence of Amphotericin B at 50uM. Plates were incubated for four days at 37C, 5% CO2. The assay readout was developed by addition of 5uL of CellTiter-Glo Reagent following the manufacturer's instructions. Luminiscence was measured using a ViewLux.
- Type: functional, cell-based
- CONDITIONS: Mus musculus, NIH3T3, 96 h
QUANTITY: IC50

Examples with their reported IC50 follow.
MOLECULE	VALUE_OBSERVED
COc1cc(C(C)C)c(S(C)(=O)=O)cc1C(=O)N1CCN(c2ccccc2Cl)CC1	> 50.1 µM
COc1ccc(S(=O)(=O)Nc2ccccc2OC)cc1NC(=O)CCCc1c[nH]c2ccccc12	> 50.1 µM

// field: IC50; key: `Cc1nc2[nH]c(C)c(Cc3ccc(C(C)C)cc3)c(=O)n2n1` ; value = > 50.1 µM

So, `COc1ccc2c(Cl)c(C(=O)N3CCC3)sc2c1Cl` ? Its IC50 was > 50.1 µM

Entry `CCOc1cnn(C)c(=O)c1Nc1ccc(C(=O)NCc2ccc(F)cc2)cc1` — recorded IC50 = > 50.1 µM

###

- TESTED_SYSTEM: Sterol 14-alpha demethylase (Trypanosoma cruzi (strain CL Brener), UniProt Q7Z1V1)
- Sequence (Q7Z1V1 whole entry): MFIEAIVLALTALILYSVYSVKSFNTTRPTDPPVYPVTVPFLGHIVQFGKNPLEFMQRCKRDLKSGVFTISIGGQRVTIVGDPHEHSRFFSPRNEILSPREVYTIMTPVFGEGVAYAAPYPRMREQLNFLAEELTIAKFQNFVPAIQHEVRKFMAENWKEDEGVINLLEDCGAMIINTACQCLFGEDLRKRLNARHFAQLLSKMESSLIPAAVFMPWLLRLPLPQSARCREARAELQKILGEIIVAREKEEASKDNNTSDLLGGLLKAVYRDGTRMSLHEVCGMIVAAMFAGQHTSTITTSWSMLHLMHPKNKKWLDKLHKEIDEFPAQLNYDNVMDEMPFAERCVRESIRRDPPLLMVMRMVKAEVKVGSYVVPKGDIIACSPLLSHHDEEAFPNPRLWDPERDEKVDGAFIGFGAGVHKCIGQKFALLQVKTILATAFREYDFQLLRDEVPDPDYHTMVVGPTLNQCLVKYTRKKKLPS
- PROTOCOL_NOTES: GSK_TCAKS: pIC50 CYP51 from Trypanosoma cruzi.
Measured IC50 of individual entries

Reference set, count: 4
MOLECULE	QUANTITY	VALUE_OBSERVED
Cc1cc(N2CCc3ccccc3C2)nc(Nc2ccc(S(=O)(=O)N3CCOCC3)cc2)n1	IC50	> 100 µM
Cc1cccc(NS(=O)(=O)c2ccc3c(c2)C(=O)c2cc(S(=O)(=O)Nc4cccc(C)c4C)ccc2-3)c1C	IC50	> 100 µM
Cc1c([N+](=O)[O-])c(C(=O)Nc2sc3c(c2C#N)CCC(C)C3)nn1C (stereo not given)	IC50	> 100 µM
Cn1nc(C(=O)N2CCc3ccccc32)c2c1CCS(=O)(=O)C2	IC50	> 100 µM

For `CCc1c(C)nc(-n2nc(C)cc2NC(=O)COc2ccccc2F)[nH]c1=O` the molecule record lists IC50 as > 100 µM

###

- TESTED_SYSTEM: Sterol 14-alpha demethylase (Trypanosoma cruzi (strain CL Brener))
- PROTOCOL_NOTES: GSK_TCAKS: pIC50 CYP51 from Trypanosoma cruzi.
- Assay type: functional
Known IC50 of a selection of compounds

Study these solved cases before continuing.
COMPOUND	IC50
CNC(=O)C1Cc2ccccc2N1C(=O)Cc1ccc(F)cc1 (stereo not drawn)	> 100 µM
O=C(NCc1ccc(-n2cccc2)cc1)c1nc(Cn2ccc([N+](=O)[O-])n2)no1	> 100 µM

Next up:
Tested system Sterol 14-alpha demethylase (Trypanosoma cruzi (strain CL Brener)); IC50 recorded for `COc1ccc2ncc(=O)n(CCN3CC[C@H](NCc4ncc(Cl)c5[nH]ncc45)[C@H](O)C3)c2n1` was > 100 µM

###

- Test system: Leishmania donovani
- PROTOCOL_NOTES: GSK_TCAKS: pIC50 Leishmania donovani viability assay using fluorescence intensity. Assay plates (1536-well) were prepared by adding 30nL per well of compound. For single shot assay, the final compound concentration was 5uM. […] Briefly, eGFP LdBOB axenic amastigotes were harvested, fixed and counted in a CASY cell counter (Roche-Applied Science). A final concentration of 1.5 * 10^5 cells per well were prepared in amastigote media containing 500 U/mL penicillin/streptomycin (Invitrogen) and 6uL was dispensed to each experimental well using a Multidrop Combi dispenser (Thermo Scientific). 6uL of assay media was dispensed to control columns used as reference for 100% compound response. Following incubation for 72 h at 37C, 5% CO2, 2 uL of resazurin was added to each well at a final concentration of 0.5 mM in phosphate buffered saline (PBS) with IGEPAL (Sigma-Aldrich), 0.05% (v/v).
- Type: functional, organism-based
The compounds listed here are annotated with their pIC50.
Schema: pIC50 number; meaning minus log10 of the concentration expressed in molar units.

COMPOUND	pIC50
COc1ccc(CN(C)Cc2ccncc2)cc1-c1ccc(S(=O)(=O)NC2CCC2)s1	4.40
COc1cccc(CN(C)Cc2nc(N)c3c(C)c(C)sc3n2)c1	4.50
C[C@@H](Oc1cc(-n2cnc3ccc(CC(O)CO)cc32)sc1C(N)=O)c1ccccc1Cl (stereo not given in full)	4.60
COCc1cnc2c(c1SCc1c(F)cccc1Cl)c(=O)n(C)c(=O)n2C	5.40

Consider `O=C(NNC(=O)c1ccccn1)c1ccc(-c2ccccc2)cc1` . Its measured pIC50 is 5.50

// sample O=C(Nc1ccc(C(=O)N2CCCC2c2ccc3c(c2)OCCCO3)cc1)c1ccco1 (stereo not given) , its pIC50 was 6.10

pIC50 in this record for `CN(Cc1cccnc1)Cc1ccc(N2CCN(C(=O)C3(c4ccc(Cl)cc4)CC3)CC2)nc1` : 4.50
